# TESTED_SYSTEM: human CGRP receptor (Homo sapiens, UniProt O60894+Q16602)
# Construct: SK-N-MC cells that endogenously express the human CGRP receptor; endogenous in cells
# PROCEDURE_DETAILS: Radioligand binding assay, [125I]-CGRP competition on SK-N-MC cell homogenates
# COND: Binding data, [125I]-CGRP 40 pM, room temperature
pIC50: −log10 of the molar value.
REPORTED_ENDPOINT: pIC50

Example results:
> print(dat)
                                   molecule                             tested.system  measured.value
1  CC(=O)c1ccc(NC(=O)N2CCC(=O)N3[C@@H]2CN(CCc2cccc(F)c2)C(=O)[C@@H]3Cc2ccc(OCc3ccccc3)cc2)cc1  human CGRP receptor (Homo sapiens, UniProt O60894+Q16602)            5.65
2  CC(=O)c1ccc(NC(=O)N2CCC(=O)N3[C@@H](c4cccc(F)c4F)C(=O)N(CCc4cccc(F)c4)C[C@H]23)cc1  human CGRP receptor (Homo sapiens, UniProt O60894+Q16602)            6.44
3  CC[C@H](C)[C@H]1C(=O)N(CCc2cccc(F)c2)C[C@@H]2N(C(=O)Nc3ccc(C(C)=O)cc3)CCC(=O)N12 [Compound 21]  human CGRP receptor (Homo sapiens, UniProt O60894+Q16602)            6.63
4  CC(=O)c1ccc(NC(=O)N2c3cc4ccccc4cc3C(=O)N3[C@@H](C4CCOCC4)C(=O)N(CCc4cccc(F)c4)C[C@H]23)cc1  human CGRP receptor (Homo sapiens, UniProt O60894+Q16602)            5.53
5  CC(=O)c1ccc(NC(=O)N2CCC(=O)N3[C@@H]2CN(CCc2cccc(F)c2)C(=O)[C@@H]3C)cc1  human CGRP receptor (Homo sapiens, UniProt O60894+Q16602)            4.52

1. CC(=O)c1ccc(NC(=O)N2CCC(=O)N3[C@@H]2CN(CCc2ccccc2)C(=O)[C@@H]3Cc2ccc(F)c(F)c2)cc1
2. CC(=O)c1ccc(NC(=O)N2CCC(=O)N3[C@@H](C4CCCCC4)C(=O)N(CCc4ccc(F)cc4)C[C@H]23)cc1
3. O=C1COc2cc(OC(=O)N3CCC(=O)N4[C@@H](C5CCCCC5)C(=O)N(CCc5ccccc5)C[C@H]34)ccc21
Req: Rank items: key pIC50, increasing. # answer = labels listed in requested order
Resp: 1, 3, 2
